# Target Of Assay: T1, human 5T4-His protein (human, UniProt Q13641 32-355)
# T1 construct: also called recombinant 5T4 protein (human 5T4-his tag); human 5T4 protein; not shown: His tag
# T1 sequence (looked up): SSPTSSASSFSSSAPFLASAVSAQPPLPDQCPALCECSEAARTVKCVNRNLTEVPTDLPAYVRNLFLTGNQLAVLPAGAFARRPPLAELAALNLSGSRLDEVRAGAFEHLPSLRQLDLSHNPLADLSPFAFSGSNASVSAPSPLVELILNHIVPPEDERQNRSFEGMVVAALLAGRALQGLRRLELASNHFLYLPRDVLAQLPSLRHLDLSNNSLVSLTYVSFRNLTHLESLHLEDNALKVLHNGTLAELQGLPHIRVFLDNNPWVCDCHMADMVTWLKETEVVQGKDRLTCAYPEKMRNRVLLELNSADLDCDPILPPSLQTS
# Assay Protocol: SPR Biacore, Protein A capture

- Binder: "Hu14G12-9 (antibody, V domains shown, humanized) VH: EVQLVQSGAEVKKPGATVKISCKVSGYAFSSSWMNWVKQAPGKGLEWIGRIYREDGHTNYNGKFKGRATITADTSTTTAYMELSSLRSEDTAVYFCANGGAMDYWGQGTLVTVSS VL: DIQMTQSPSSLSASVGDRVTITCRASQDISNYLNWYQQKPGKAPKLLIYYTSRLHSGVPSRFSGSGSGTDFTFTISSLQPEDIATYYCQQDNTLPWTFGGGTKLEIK"
  kon (M⁻¹ s⁻¹): 202000
